Listed here: items and their measured growth.
System: OVCAR-4 ovarian
ASSAY_INFO: NCI-60 one-dose screen, 48 h (100 = growth as untreated, 0 = no growth, -100 = all killed)
EXPERIMENTAL_CONTEXT: 10 µM unless noted
About 83,000 compounds went through this panel and 20% of them were active in at least one assay; those are over-represented in the sample as a whole. The source made the active and inactive calls. The calls were made as follows: active = growth percent below 10; inactive = the rest.

COMPOUND: N#C/C(=C/C=C/c1ccccc1)S(=O)c1ccccc1 (stereo unspecified)
growth: 18.6% (inactive)
//
COMPOUND: CC1OC(C(=O)N2CCN(CCO)CC2)CC1COC1CCCCC1 (stereo unspecified)
growth: 104% [50 µM] (inactive)
//
COMPOUND: CNc1nc2ncc(-c3c(C)noc3C)cc2n1Cc1ccccc1
growth: 53.6% (inactive)
//
COMPOUND: O=C(/C=C\c1ccc(O)c(O)c1)c1ccccc1O
growth: 74.9% (inactive)
//
COMPOUND: CS(=O)(=O)Nc1cc(-c2ccc3ncnc(Nc4cccc(Cl)c4)c3c2)cnc1Cl
growth: 13.7% (inactive)
//
COMPOUND: COc1ccc(N2C(=O)/C(=C/C(Cl)=C/c3ccc([N+](=O)[O-])cc3)SC2=S)cc1
growth: 10.4% (inactive)
